# Tested on: 653999-131-R-J2-PDC complex spheroids, growth % test/control
# procedureText: Anticancer human tumor 653999-131-R-J2-PDC patient-derived lung adenocarcinoma cell line growth inhibition [AhR]
# assayContext: curve of first compound; second compound 0.1 µM
pIC50: −log10 of the molar value.
readout: pIC50

Worked set:
Looking for the measured pIC50 of CCN(c1cc(-c2ccc(CN3CCOCC3)cc2)cc(C(=O)NCc2c(C)cc(C)[nH]c2=O)c1C)C1CCOCC1 + Cc1ccccc1N=Nc1ccc(NC(=O)c2ccnn2C)c(C)c1 , can you help?
< 5.52

Quick one: pIC50 of CC(C)c1c(-c2ccccc2)nc2c(C#N)c[nH]n2c1=O + Cc1ccccc1N=Nc1ccc(NC(=O)c2ccnn2C)c(C)c1 ?
< 5.00

Fill in the blank: the reported pIC50 of CCN(c1cc(-c2ccc(CN3CCOCC3)cc2)cc(C(=O)NCc2c(C)cc(C)[nH]c2=O)c1C)C1CCOCC1 + CC(CO)NC(=O)c1cc(-c2ccc(Cl)cc2)nn(-c2cnn(C)c2)c1=O is ____.
< 5.52

Request the reported pIC50 associated with CC(C)c1c(-c2ccccc2)nc2c(C#N)c[nH]n2c1=O + CC(CO)NC(=O)c1cc(-c2ccc(Cl)cc2)nn(-c2cnn(C)c2)c1=O
< 5.00

Tell me the measured pIC50 of CC[C@@]1(O)C(=O)OCc2c1cc1n(c2=O)Cc2cc3c(CN(C)C)c(O)ccc3nc2-1 + Cc1cncc(-c2nc(NCCc3c[nH]c4ccccc34)c3ncn(C(C)C)c3n2)c1 , please.
7.47

Next:
Recorded pIC50 of Cn1ncnc1C1c2n[nH]c(=O)c3cc(F)cc(c23)NC1c1ccc(F)cc1 (stereo unspecified) + Cc1ccccc1N=Nc1ccc(NC(=O)c2ccnn2C)c(C)c1 , please.
< 7.00

Fill blank: measured pIC50 of the compound CCc1c2c(nc3ccc(O)cc13)-c1cc3c(c(=O)n1C2)COC(=O)[C@]3(O)CC + Cc1ccccc1N=Nc1ccc(NC(=O)c2ccnn2C)c(C)c1 is ____.
7.94

Sample CC1(C)CCC(CN2CCN(c3ccc(C(=O)NS(=O)(=O)c4ccc(NCC5CCOCC5)c([N+](=O)[O-])c4)c(Oc4cnc5[nH]ccc5c4)c3)CC2)=C(c2ccc(Cl)cc2)C1 + CC(CO)NC(=O)c1cc(-c2ccc(Cl)cc2)nn(-c2cnn(C)c2)c1=O — what was its pIC50?
< 5.00

Reported pIC50, compound CC1(C)CCC(CN2CCN(c3ccc(C(=O)NS(=O)(=O)c4ccc(NCC5CCOCC5)c([N+](=O)[O-])c4)c(Oc4cnc5[nH]ccc5c4)c3)CC2)=C(c2ccc(Cl)cc2)C1 + Cc1ccccc1N=Nc1ccc(NC(=O)c2ccnn2C)c(C)c1 : ____
< 5.00

Fill in the blank: the reported pIC50 of NS(=O)(=O)OCC1CC(n2ccc3c(NC4CCc5ccccc54)ncnc32)CC1O (stereo unspecified) + Cc1cncc(-c2nc(NCCc3c[nH]c4ccccc34)c3ncn(C(C)C)c3n2)c1 is ____.
5.21

Need pIC50 of COc1cccc2c1C(=O)c1c(O)c3c(c(O)c1C2=O)CC(O)(C(=O)CO)CC3OC1CC(N)C(O)C(C)O1 (stereo unspecified) + Cc1cncc(-c2nc(NCCc3c[nH]c4ccccc34)c3ncn(C(C)C)c3n2)c1 , thanks.
> 7.50

====

# System: 653999-131-R-J2-PDC complex spheroids, growth % test/control
# procedureText: Anticancer human tumor 653999-131-R-J2-PDC cell line growth inhibition [AhR];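 note: spheroids exposed to agents for seven days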;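 for viability, T/C: 100% = DMSO vehicle control viability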
# assayContext: second compound 0.316 µM; first compound 0.316 µM; stronger effect = lower value
readout: viability, T/C (%)
Report as a plain number; the unit % is understood.

Reference set (6 entries):
Requested field: viability, T/C. Item: O=C(c1cc(Cc2n[nH]c(=O)c3ccccc23)ccc1F)N1CCN(C(=O)C2CC2)CC1 + Cc1ccccc1N=Nc1ccc(NC(=O)c2ccnn2C)c(C)c1
95.5

Need viability, T/C of COc1cc(C2c3cc4c(cc3C(OC3OC5COC(C)OC5C(O)C3O)C3COC(=O)C23)OCO4)cc(OC)c1O (configuration not stated) + Cc1ccccc1N=Nc1ccc(NC(=O)c2ccnn2C)c(C)c1 , thanks.
54

Form field: reported viability, T/C of COc1cc(Nc2ncc3c(n2)-c2ccc(Cl)cc2C(c2c(F)cccc2OC)=NC3)ccc1C(=O)O + Cc1ccccc1N=Nc1ccc(NC(=O)c2ccnn2C)c(C)c1
71.9

Form field: reported viability, T/C of Nc1ccccc1NC(=O)c1ccc(CNC(=O)OCc2cccnc2)cc1 + CC(CO)NC(=O)c1cc(-c2ccc(Cl)cc2)nn(-c2cnn(C)c2)c1=O
83.7

Requested read-out: viability, T/C. Entry: Nc1ncn(C2CC(O)C(CO)O2)c(=O)n1 (configuration not stated) + Cc1cncc(-c2nc(NCCc3c[nH]c4ccccc34)c3ncn(C(C)C)c3n2)c1
87.7

# viability, T/C lookup, item NS(=O)(=O)OCC1CC(n2ccc3c(NC4CCc5ccccc54)ncnc32)CC1O (configuration not stated) + Cc1ccccc1N=Nc1ccc(NC(=O)c2ccnn2C)c(C)c1
123

***
Fill in: viability, T/C of COc1ccc([C@@H](O)c2cc(-c3ncnc4cc(N5CCOCC5)ccc34)c(F)cc2Cl)nn1 + CC(CO)NC(=O)c1cc(-c2ccc(Cl)cc2)nn(-c2cnn(C)c2)c1=O is ___
87.8

Return reported viability, T/C; argument: CC(C)c1c(-c2ccccc2)nc2c(C#N)c[nH]n2c1=O + Cc1ccccc1N=Nc1ccc(NC(=O)c2ccnn2C)c(C)c1
103

# query: viability, T/C of entry COc1cc(C2c3cc4c(cc3C(OC3OC5COC(C)OC5C(O)C3O)C3COC(=O)C23)OCO4)cc(OC)c1O (configuration not stated) + CC(CO)NC(=O)c1cc(-c2ccc(Cl)cc2)nn(-c2cnn(C)c2)c1=O
63.5

Would you mind telling me what viability, T/C value was observed for CC1(C)CCC(CN2CCN(c3ccc(C(=O)NS(=O)(=O)c4ccc(NCC5CCOCC5)c([N+](=O)[O-])c4)c(Oc4cnc5[nH]ccc5c4)c3)CC2)=C(c2ccc(Cl)cc2)C1 + Cc1cncc(-c2nc(NCCc3c[nH]c4ccccc34)c3ncn(C(C)C)c3n2)c1 ?
94.8

Fill blank: measured viability, T/C of the compound Nc1ccn(C2OC(CO)C(O)C2(F)F)c(=O)n1 (configuration not stated) + Cc1ccccc1N=Nc1ccc(NC(=O)c2ccnn2C)c(C)c1 is ____.
52.8

Quick one: viability, T/C for O=C(C=Cc1cccc(S(=O)(=O)Nc2ccccc2)c1)NO + CC(CO)NC(=O)c1cc(-c2ccc(Cl)cc2)nn(-c2cnn(C)c2)c1=O ?
95.9

====

Below, each of the molecules is paired with its reported viability, T/C value.
# Test system: 653999-131-R-J2-PDC complex spheroids, growth % test/control
# procedureText: Anticancer human tumor 653999-131-R-J2-PDC cell line growth inhibition [AhR];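 note: spheroids exposed to agents for seven days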;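 for viability, T/C: 100% = DMSO vehicle control viability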
# assayContext: second compound 3.16 µM; first compound 0.316 µM; stronger effect = lower value
A number alone suffices; assume %.

Past entries and their recorded results:
What does the record list as viability, T/C for CC1(C)CCC(CN2CCN(c3ccc(C(=O)NS(=O)(=O)c4ccc(NCC5CCOCC5)c([N+](=O)[O-])c4)c(Oc4cnc5[nH]ccc5c4)c3)CC2)=C(c2ccc(Cl)cc2)C1 + Cc1cncc(-c2nc(NCCc3c[nH]c4ccccc34)c3ncn(C(C)C)c3n2)c1 ?
109

Requested field: viability, T/C. Item: CC1COCCN1c1cc(C2(S(C)(=N)=O)CC2)nc(-c2ccnc3[nH]ccc23)n1 (stereo unspecified) + CC(CO)NC(=O)c1cc(-c2ccc(Cl)cc2)nn(-c2cnn(C)c2)c1=O
100

With those in mind, consider the next molecule.
Need viability, T/C, item COc1ccc([C@@H](O)c2cc(-c3ncnc4cc(N5CCOCC5)ccc34)c(F)cc2Cl)nn1 + Cc1ccccc1N=Nc1ccc(NC(=O)c2ccnn2C)c(C)c1
98.7

====

# Tested on: 653999-131-R-J2-PDC complex spheroids, growth % test/control
# procedureText: Anticancer human tumor 653999-131-R-J2-PDC cell line growth inhibition [AhR]; active = viability on the fitted dose curve at most 10% of control; inactive = the rest;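 note: spheroids exposed to agents for seven days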
# assayContext: second compound 0.1 µM; first compound 0.0949 µM
Thanks in advance; please answer with one of these: true (1) for active, false (0) for inactive

Any idea what this test logged for CC(C)CC(NC(=O)C(Cc1ccccc1)NC(=O)c1cnccn1)B(O)O (configuration not stated) + Cc1cncc(-c2nc(NCCc3c[nH]c4ccccc34)c3ncn(C(C)C)c3n2)c1 ?
true (1)

For CC(C)CC(NC(=O)C(Cc1ccccc1)NC(=O)c1cnccn1)B(O)O (configuration not stated) + CC(CO)NC(=O)c1cc(-c2ccc(Cl)cc2)nn(-c2cnn(C)c2)c1=O , what call appears in the results of this test?
true (1)

GET /call?item= O=C(C=Cn1cnc(-c2cc(C(F)(F)F)cc(C(F)(F)F)c2)n1)NNc1cnccn1 + Cc1ccccc1N=Nc1ccc(NC(=O)c2ccnn2C)c(C)c1 returns the recorded outcome of this test.
false (0)

How did this test come out for CCN(c1cc(-c2ccc(CN3CCOCC3)cc2)cc(C(=O)NCc2c(C)cc(C)[nH]c2=O)c1C)C1CCOCC1 + Cc1cncc(-c2nc(NCCc3c[nH]c4ccccc34)c3ncn(C(C)C)c3n2)c1 ?
false (0)

Which outcome did this test record for the molecule CCc1c2c(nc3ccc(O)cc13)-c1cc3c(c(=O)n1C2)COC(=O)[C@]3(O)CC + Cc1ccccc1N=Nc1ccc(NC(=O)c2ccnn2C)c(C)c1 ?
false (0)

Next:
So what was the verdict on O=C(C=Cn1cnc(-c2cc(C(F)(F)F)cc(C(F)(F)F)c2)n1)NNc1cnccn1 + Cc1cncc(-c2nc(NCCc3c[nH]c4ccccc34)c3ncn(C(C)C)c3n2)c1 in this test?
false (0)

How did this test come out for Nc1ncn(C2CC(O)C(CO)S2)c(=O)n1 (configuration not stated) + Cc1ccccc1N=Nc1ccc(NC(=O)c2ccnn2C)c(C)c1 ?
false (0)

Given CCc1c2c(nc3ccc(O)cc13)-c1cc3c(c(=O)n1C2)COC(=O)[C@]3(O)CC + CC(CO)NC(=O)c1cc(-c2ccc(Cl)cc2)nn(-c2cnn(C)c2)c1=O , state the outcome it received in this test.
false (0)

Outcome? CC(C)CC(NC(=O)C(Cc1ccccc1)NC(=O)c1cnccn1)B(O)O (configuration not stated) + Cc1ccccc1N=Nc1ccc(NC(=O)c2ccnn2C)c(C)c1
false (0)

Dear colleague, could you share the recorded outcome for O=C(C=Cn1cnc(-c2cc(C(F)(F)F)cc(C(F)(F)F)c2)n1)NNc1cnccn1 + CC(CO)NC(=O)c1cc(-c2ccc(Cl)cc2)nn(-c2cnn(C)c2)c1=O when you have a moment?
false (0)

Recorded call for Nc1ncn(C2CC(O)C(CO)S2)c(=O)n1 (configuration not stated) + CC(CO)NC(=O)c1cc(-c2ccc(Cl)cc2)nn(-c2cnn(C)c2)c1=O ?
false (0)

What is the recorded call for this molecule in the test? CCc1c2c(nc3ccc(O)cc13)-c1cc3c(c(=O)n1C2)COC(=O)[C@]3(O)CC + Cc1cncc(-c2nc(NCCc3c[nH]c4ccccc34)c3ncn(C(C)C)c3n2)c1
false (0)
